Target: HLA-B*40:01
Experiment: IEDB peptide-MHC binding, purified MHC/direct/fluorescence; filed as Kd, often an IC50 or EC50 that approximates it; bounds were set here for any values at or beyond the usual limits of such assays
Details: source organism: Corynebacterium glutamicum
MEASURED_ENDPOINT: Kd

Entry VLPVPGASV has what Kd?
≥ 20 µM

* * *

Biological target: HLA-B*15:01
Test: IEDB peptide-MHC binding, purified MHC/competitive/radioactivity; filed as Kd, often an IC50 or EC50 that approximates it; bounds were set here for any values at or beyond the usual limits of such assays
Settings: source organism: Dengue virus 2 Jamaica/1409/1983
MEASURED_ENDPOINT: pKd
pKd is defined as minus the log10 of a concentration measured in mol/L.

Entry QLKGMSYSM has what pKd?
7.27

* * *

Target: HLA-B*48:01
Experiment: IEDB peptide-MHC binding, purified MHC/direct/fluorescence; filed as Kd, often an IC50 or EC50 that approximates it; bounds were set here for any values at or beyond the usual limits of such assays
Conditions: source organism: Orthohantavirus hantanense
pKd: −log10 of the molar value.
MEASURED_ENDPOINT: pKd

Entry KRIAPMLYK has what pKd?
≤ 4.70

* * *

Form field: pKd (one value per entry).
Target: HLA-A*24:02
Assay: IEDB peptide-MHC binding, purified MHC/competitive/radioactivity; filed as Kd, often an IC50 or EC50 that approximates it; bounds were set here for any values at or beyond the usual limits of such assays
Conditions: source organism: SARS coronavirus Tor2
pKd: −log10 of the molar value.

Example cases with answers are listed next.
INSERT INTO measurements (input_sequence, result) VALUES
  ('DTVWEVQGY', '≤ 4.11'),
  ('DHEFVDEFY', '≤ 4.11'),
  ('EMVMCGGSLY', '≤ 4.15'),
  ('EYADVFHLY', 6.11),
  ('LYEQVVMDY', '≤ 4.39');

Entry TSQKSIVAY has what pKd?
≤ 4.11

Entry GYLKPTTFML has what pKd?
6.99

Entry QMYKTPTLKY has what pKd?
≤ 4.15

Entry VYIGDPAQL has what pKd?
6.97

Entry DEEPMELDY has what pKd?
≤ 4.11

* * *

Target: HLA-B*15:02
Assay: IEDB peptide-MHC binding, purified MHC/direct/fluorescence; filed as Kd, often an IC50 or EC50 that approximates it; bounds were set here for any values at or beyond the usual limits of such assays
Conditions: source organism: Influenza A virus (A/Quail/Shanghai/8/96(H9N2))
MEASURED_ENDPOINT: Kd

Entry LVGGREWSY has what Kd?
≥ 20 µM

* * *

Biological target: HLA-B*27:05
Assay: IEDB peptide-MHC binding, purified MHC/direct/fluorescence; filed as Kd, often an IC50 or EC50 that approximates it; bounds were set here for any values at or beyond the usual limits of such assays
Settings: source organism: Rickettsia canadensis
MEASURED_ENDPOINT: Kd

Entry SSEADCFTY has what Kd?
≥ 20 µM

* * *

Target: HLA-B*27:03
Test: IEDB peptide-MHC binding, purified MHC/competitive/fluorescence; filed as Kd, often an IC50 or EC50 that approximates it; bounds were set here for any values at or beyond the usual limits of such assays
Conditions: source organism: Reston ebolavirus
MEASURED_ENDPOINT: Kd

Can you look up Kd on HLA-B*27:03 for ITDEINQIK ?
≥ 20 µM
